Provenance of the data: ChEMBL document CHEMBL4138300

# EXPERIMENT: Mean residence time (0 to infinity) in ICR mouse at 1 mg/kg, iv
# Format: ADME, organism-based
# PROTOCOL CONDITIONS: in vivo
EXPERIMENTAL ENDPOINT: MRT inf (h)
Quick reminder: number only, in h, skip the unit.

Enquiry: So what does the record say about MRT inf for CCc1c(N(CC)C2CCOCC2)cc2oc(C3CCN(C(C)C)CC3)cc2c1C(=O)NCc1c(C)cc(C)[nH]c1=O ?
Return: 1.3

----------
# EXPERIMENT: Protein binding in human plasma
# Assay type: ADME, cell-free
# PROTOCOL CONDITIONS: read-out: PPB (converted)
EXPERIMENTAL ENDPOINT: fraction unbound
Output spec: single numeric token, no unit.

Enquiry: So what does the record say about fraction unbound for CCc1c(N(CC)C2CCOCC2)cc2oc(C3CCN(C(C)C)CC3)cc2c1C(=O)NCc1c(C)cc(C)[nH]c1=O ?
Return: 0.061
